- test method notes: Resistance to proteolytic degradation in fetal bovine serum
- Assay type: in vitro ADME
- measurement parameters: 25% fetal bovine serum in water, 37 °C, LC peak area, time 0 = 100; 2 h; replicate 3
No end group written: not given here.

- substance: "GLLKRIKTLL-NH2 [Anoplin, reference compound]"
  Peptide remaining: 0.0
- substance: "GLGALLNVIKSGL-NH2 [AV]"
  Peptide remaining: 0.0
- substance: "FLGALWNVAKSVF-NH2 [VmCT1, reference compound]"
  Peptide remaining: 11.9
- substance: "FLGTLWGGAKGVF-NH2 [VP]"
  Peptide remaining: 4.4
- substance: "ILGAILNVLKSLG-NH2 [PV]"
  Peptide remaining: 0
- substance: "ILGTILGLLKGL-NH2 [Protonectin, reference compound]"
  Peptide remaining: 0.0
- substance: "FLPLIGRVLSGIL-NH2 [Temporin A, reference compound]"
  Peptide remaining: 0
- substance: "FLGSLWRKAGTVF-NH2 [VD]"
  Peptide remaining: 63.8
- substance: "FLPLLWRVASGVF-NH2 [VT]"
  Peptide remaining: 0
- substance: "SLGALINVLKSGG-NH2 [DV]"
  Peptide remaining: 0.0
- substance: "FLGAIGNVLKSIL-NH2 [TV]"
  Peptide remaining: 0
- substance: "SLLSLIRKLIT-NH2 [Decoralin, reference compound]"
  Peptide remaining: 0.0

* * *

- test method notes: Resistance to proteolytic degradation in fetal bovine serum
- Assay type: in vitro ADME
- measurement parameters: 25% fetal bovine serum in water, 37 °C, LC peak area, time 0 = 100; 0.5 h; replicate 2
No end group written: not given here.

- substance: "GLGALLNVIKSGL-NH2 [AV]"
  Peptide remaining: 34.0
- substance: "FLPLLWRVASGVF-NH2 [VT]"
  Peptide remaining: 0
- substance: "FLGTLWGGAKGVF-NH2 [VP]"
  Peptide remaining: 22.1
- substance: "FLGAIGNVLKSIL-NH2 [TV]"
  Peptide remaining: 0
- substance: "ILGTILGLLKGL-NH2 [Protonectin, reference compound]"
  Peptide remaining: 0.0

* * *

Examples of substances with documented Peptide remaining follow.
- test method notes: Resistance to proteolytic degradation in fetal bovine serum
- Format: in vitro ADME
- measurement parameters: 25% fetal bovine serum in water, 37 °C, LC peak area, time 0 = 100; 1 h; replicate 2
No end group written: not given here.

- substance: "FLGSLWRKAGTVF-NH2 [VD]"
  Peptide remaining: 77.3
- substance: "SLGALINVLKSGG-NH2 [DV]"
  Peptide remaining: 0.0
- substance: "FLPLIGRVLSGIL-NH2 [Temporin A, reference compound]"
  Peptide remaining: 0
- substance: "FLPLLWRVASGVF-NH2 [VT]"
  Peptide remaining: 0
- substance: "ILGAILNVLKSLG-NH2 [PV]"
  Peptide remaining: 0
- substance: "FLGTLWGGAKGVF-NH2 [VP]"
  Peptide remaining: 16.0
- substance: "ILGTILGLLKGL-NH2 [Protonectin, reference compound]"
  Peptide remaining: 0.0
- substance: "FLGALWNVAKSVF-NH2 [VmCT1, reference compound]"
  Peptide remaining: 8.5
- substance: "FLGAIGNVLKSIL-NH2 [TV]"
  Peptide remaining: 0
- substance: "GLGALLNVIKSGL-NH2 [AV]"
  Peptide remaining: 32.8
- substance: "GLLKRIKTLL-NH2 [Anoplin, reference compound]"
  Peptide remaining: 17.5
